system: ACHN; test: NCI60 growth inhibition, ACHN; assay type: cell-based; conditions: Renal Cancer
// reported Growth inhibition (% control) GIPRCNT for each item listed

>>> observed("CN1CCN(c2ccc3nc4c(nc3c2C(F)(F)F)C(=O)c2ncccc2C4=O)CC1")
"−44.1558 % control"

## Task Find the recorded Growth inhibition (% control) GIPRCNT belonging to O=C1c2cccnc2C(=O)c2nc3cc(N4CCN(C5CC5)CC4)ccc3nc21 and report it.
## Result −35.0589 % control

## Task # input compound: CN1CCN(c2cc(F)c(NC3=C(Cl)C(=O)c4ncccc4C3=O)c(F)c2)CC1 ; wanted: its Growth inhibition (% control) GIPRCNT
## Result −93.058 % control

## Task Fill in: Growth inhibition (% control) GIPRCNT of Cc1ccc2c(n1)C(=O)C(Cl)=C(Nc1ccc(N3CCN(C)CC3)cc1)C2=O is ___
## Result −93.75 % control

---

Examples of compounds with documented Growth inhibition (% control) GIPRCNT follow.
system: DU-145; assay: NCI60 growth inhibition, DU-145; format: cell-based; details: Prostate Cancer
The answer is to be given in % control; state only the numeric part.

## Task Given CN1CCN(c2cc(F)c(NC3=C(Cl)C(=O)c4ncccc4C3=O)c(F)c2)CC1 , state its recorded Growth inhibition (% control) GIPRCNT.
## Result −67.5681

## Task Report Growth inhibition (% control) GIPRCNT for O=C1c2cccnc2C(=O)c2nc3cc(N4CCN(C5CC5)CC4)ccc3nc21 please.
## Result −75.9298

## Task Please report the recorded Growth inhibition (% control) GIPRCNT for Cc1ccc2c(n1)C(=O)C(Cl)=C(Nc1ccc(N3CCN(C)CC3)cc1)C2=O .
## Result −18.6864

## Task // Growth inhibition (% control) GIPRCNT lookup, key: CN1CCN(c2ccc3nc4c(nc3c2C(F)(F)F)C(=O)c2ncccc2C4=O)CC1
## Result −85.7143

---

test system: 786-0; assay: NCI60 growth inhibition, 786-0; assay type: cell-based; details: Renal Cancer
READOUT_TYPE: Growth inhibition (% control) GIPRCNT
Number only, in % control; omit the unit.

>>> observed("CN1CCN(c2ccc3nc4c(nc3c2C(F)(F)F)C(=O)c2ncccc2C4=O)CC1")
36.69
>>> observed("CN1CCN(c2cc(F)c(NC3=C(Cl)C(=O)c4ncccc4C3=O)c(F)c2)CC1")
"−72.0362"
>>> observed("Cc1ccc2c(n1)C(=O)C(Cl)=C(Nc1ccc(N3CCN(C)CC3)cc1)C2=O")
52.18

## Task Would you kindly share the measured Growth inhibition (% control) GIPRCNT for O=C1c2cccnc2C(=O)c2nc3cc(N4CCN(C5CC5)CC4)ccc3nc21 ?
## Result 28.12

---

Items are presented alongside their recorded Growth inhibition (% control) GIPRCNT.
system: SR; test: NCI60 growth inhibition, SR; format: cell-based; details: Leukemia
Kindly provide the numeric value in % control only, without the unit symbol.

>>> observed("Cc1ccc2c(n1)C(=O)C(Cl)=C(Nc1ccc(N3CCN(C)CC3)cc1)C2=O [Compound 13]")
"−5.054"

## Task I'd like to know its Growth inhibition (% control) GIPRCNT. The compound in question is CN1CCN(c2ccc3nc4c(nc3c2C(F)(F)F)C(=O)c2ncccc2C4=O)CC1 [Compound 50]
## Result −27.1607

## Task Growth inhibition (% control) GIPRCNT lookup needed for O=C1c2cccnc2C(=O)c2nc3cc(N4CCN(C5CC5)CC4)ccc3nc21 [Compound 49] , thanks.
## Result −10.03

## Task For the compound CN1CCN(c2cc(F)c(NC3=C(Cl)C(=O)c4ncccc4C3=O)c(F)c2)CC1 [Compound 1] , what Growth inhibition (% control) GIPRCNT is on record?
## Result −0.8134
